# System: NCI-H661
# Method Notes: relative viability (nuclei count vs DMSO), 5 days (fraction); higher = more cells survive
# Applied Conditions: first compound 8 µM
Readings of relative viability for the listed molecules
The reply should be a number, written without any unit.

molecule="O=c1cc(-c2cccc3c2Sc2ccccc2S3)oc(N2CCOCC2)c1 + CC(=O)c1c(C)c2cnc(Nc3ccc(N4CCNCC4)cn3)nc2n(C2CCCC2)c1=O [Palbociclib] (partner 0.5 µM)" measurement_type="relative viability" meas_value=0.379
molecule="O=c1cc(-c2cccc3c2Sc2ccccc2S3)oc(N2CCOCC2)c1 + O=C(CCCCCCC(=O)Nc1ccccc1)NO [Vorinostat] (partner 1 µM)" measurement_type="relative viability" meas_value=0.789
molecule="O=c1cc(-c2cccc3c2Sc2ccccc2S3)oc(N2CCOCC2)c1 + CC(=O)Nc1cccc(-n2c(=O)n(C3CC3)c(=O)c3c(Nc4ccc(I)cc4F)n(C)c(=O)c(C)c32)c1 [Trametinib] (partner 0.02 µM)" measurement_type="relative viability" meas_value=0.471

Asked: I'd like to know its relative viability. The molecule in question is O=c1cc(-c2cccc3c2Sc2ccccc2S3)oc(N2CCOCC2)c1 + Cc1cc(Nc2cc(N3CCN(C)CC3)nc(Sc3ccc(NC(=O)C4CC4)cc3)n2)n[nH]1 [Tozasertib] (partner 0.1 µM)
Given back: 0.353

###

# Tested on: NCI-H1975
# Method Notes: relative viability (nuclei count vs DMSO), 5 days (fraction); higher = more cells survive
# Applied Conditions: first compound 20 µM
Below, each entry is listed alongside its reported relative viability.
# output: bare number, no unit

Below: 5 compounds and their reported relative viability.
compound="COCC1(CO)C(=O)C2CCN1CC2 (configuration not stated) [PRIMA-1MET] + Nc1nc2[nH]cc(CCc3ccc(C(=O)N[C@@H](CCC(=O)O)C(=O)O)cc3)c2c(=O)[nH]1 [Pemetrexed] (partner 0.2 µM)" meas_value=0.282
compound="COCC1(CO)C(=O)C2CCN1CC2 (configuration not stated) [PRIMA-1MET] + CCNC(=O)c1noc(-c2cc(C(C)C)c(O)cc2O)c1-c1ccc(CN2CCOCC2)cc1 [Luminespib] (partner 0.01 µM)" meas_value=0.154
compound="COCC1(CO)C(=O)C2CCN1CC2 (configuration not stated) [PRIMA-1MET] + CC(=O)c1c(C)c2cnc(Nc3ccc(N4CCNCC4)cn3)nc2n(C2CCCC2)c1=O [Palbociclib] (partner 0.5 µM)" meas_value=0.582
compound="COCC1(CO)C(=O)C2CCN1CC2 (configuration not stated) [PRIMA-1MET] + NC(=O)Nc1cc(-c2cccc(F)c2)sc1C(=O)N[C@H]1CCCNC1 [AZD7762] (partner 0.2 µM)" meas_value=0.181
compound="COCC1(CO)C(=O)C2CCN1CC2 (configuration not stated) [PRIMA-1MET] + CC(=O)Nc1cccc(-n2c(=O)n(C3CC3)c(=O)c3c(Nc4ccc(I)cc4F)n(C)c(=O)c(C)c32)c1 [Trametinib] (partner 0.02 µM)" meas_value=0.457

Asked: Can you look up the measured relative viability of COCC1(CO)C(=O)C2CCN1CC2 (configuration not stated) [PRIMA-1MET] + CS(=O)(=O)CCNCc1ccc(-c2ccc3ncnc(Nc4ccc(OCc5cccc(F)c5)c(Cl)c4)c3c2)o1 [Lapatinib] (partner 2 µM) for me?
Given back: 0.816

Asked: Do the same for COCC1(CO)C(=O)C2CCN1CC2 (configuration not stated) [PRIMA-1MET] + O=C(CCCCCCC(=O)Nc1ccccc1)NO [Vorinostat] (partner 1 µM) please
Given back: 0.698

Asked: Proceed to COCC1(CO)C(=O)C2CCN1CC2 (configuration not stated) [PRIMA-1MET] + N=C(N)NC(=N)NCCc1ccccc1 [Phenformin] (partner 250 µM)
Given back: 0.194

Asked: For COCC1(CO)C(=O)C2CCN1CC2 (configuration not stated) [PRIMA-1MET] + Nc1ncn([C@H]2C[C@H](O)[C@@H](CO)O2)c(=O)n1 [Decitabine] (partner 2 µM) then?
Given back: 0.371

Asked: COCC1(CO)C(=O)C2CCN1CC2 (configuration not stated) [PRIMA-1MET] + Cc1nc(Nc2ncc(C(=O)Nc3c(C)cccc3Cl)s2)cc(N2CCN(CCO)CC2)n1 [Dasatinib] (partner 0.075 µM) , same question.
Given back: 0.19

Asked: Ok, now COCC1(CO)C(=O)C2CCN1CC2 (configuration not stated) [PRIMA-1MET] + O=C(c1cc(Cc2n[nH]c(=O)c3ccccc23)ccc1F)N1CCN(C(=O)C2CC2)CC1 [Olaparib] (partner 8 µM)
Given back: 0.616

Asked: Would you kindly repeat that for COCC1(CO)C(=O)C2CCN1CC2 (configuration not stated) [PRIMA-1MET] + COc1cc2c(Oc3ccc(NC(=O)C4(C(=O)Nc5ccc(F)cc5)CC4)cc3F)ccnc2cc1OCCCN1CCOCC1 [Foretinib] (partner 0.25 µM) ?
Given back: 0.626
